The reported numbers originate from ChEMBL document CHEMBL1770088.

Assay Target: Calcitonin gene-related peptide type 1 receptor (Homo sapiens, UniProt O60894+Q16602)
Sequence (Q16602 whole entry, one chain of several): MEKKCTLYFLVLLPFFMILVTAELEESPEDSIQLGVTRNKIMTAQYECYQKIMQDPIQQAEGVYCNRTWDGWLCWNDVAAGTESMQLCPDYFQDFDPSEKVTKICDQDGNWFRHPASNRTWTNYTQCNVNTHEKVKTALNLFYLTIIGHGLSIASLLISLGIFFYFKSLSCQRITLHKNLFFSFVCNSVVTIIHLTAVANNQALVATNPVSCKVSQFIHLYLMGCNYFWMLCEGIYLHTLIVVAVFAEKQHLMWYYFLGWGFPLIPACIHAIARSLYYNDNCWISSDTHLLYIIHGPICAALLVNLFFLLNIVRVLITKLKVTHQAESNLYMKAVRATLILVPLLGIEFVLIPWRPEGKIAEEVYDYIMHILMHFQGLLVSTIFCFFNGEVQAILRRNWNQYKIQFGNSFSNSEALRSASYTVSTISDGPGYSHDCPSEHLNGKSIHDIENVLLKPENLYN
Procedure Text: Displacement of [125I]-CGRP from human recombinant CGRP receptor
pKi: −log10 of the molar value.
Quantity Measured: pKi

P. COCc1cnc2n1C[C@H](c1cccc(F)c1F)CC[C@H]2NC(=O)N1CCC2(CC1)OC(=O)Nc1ncccc12
Q. O=C(N[C@@H]1CC[C@@H](c2cccc(F)c2F)Cn2c(C3(C(F)(F)F)CC3)cnc21)N1CCC2(CC1)C(=O)Nc1ncccc12
R. O=C(N[C@@H]1CC[C@@H](c2cccc(F)c2F)Cn2cc(CC(F)(F)F)nc21)N1CCC(n2c(=O)[nH]c3ncccc32)CC1
S. O=C1Nc2ncccc2C2(CCN(C(=O)N[C@@H]3CC[C@@H](c4cccc(F)c4F)Cn4c(CC(F)(F)F)cnc43)CC2)O1
Output the entries ranked by pKi from maximum down to minimum. Your answer should be the labels, listed in the requested order. S, P, Q, R
(S: 10.15, P: 9.85, Q: 9.20, R: 8.41)
